Tested on: Escherichia coli TOP10
assay.name: shrunken log2 fold change of peptide-encoding DNA abundance (4.5 h post-induction vs induction); higher = less antimicrobial activity (less host growth inhibition)
run.parameters: time post-induction: 4.5 h; library: site-saturation at positions 5, 18, 19, 20
Tick 1 if shrunken log2 fold change is -0.2 or greater. Tick -1 if shrunken log2 fold change is less than -0.2.

macromolecule.sequence	label
RRIRRRPPRLPRPRPRPYLAPRP	1
RRIRDRPPRLPRPRPRPVFPPRP	1
RRIRVRPPRLPRPRPRPCVKPRP	-1
RRIRNRPPRLPRPRPRPAPKPRP	1
RRIRIRPPRLPRPRPRPRNPPRP	1
RRIRQRPPRLPRPRPRPFWMPRP	1
RRIRYRPPRLPRPRPRPYMVPRP	-1
RRIRVRPPRLPRPRPRPHCNPRP	-1

----------
System: Escherichia coli TOP10
assay.name: shrunken log2 fold change of peptide-encoding DNA abundance (4.5 h post-induction vs induction); higher = less antimicrobial activity (less host growth inhibition)
run.parameters: time post-induction: 4.5 h; library: site-saturation at positions 5, 18, 19, 20
measured.property: shrunken log2 fold change

macromolecule.sequence	measured.property	value.reported
RRIRSRPPRLPRPRPRPYVKPRP	shrunken log2 fold change	-0.351
RRIRHRPPRLPRPRPRPHIDPRP	shrunken log2 fold change	-0.241
RRIRARPPRLPRPRPRPRCLPRP	shrunken log2 fold change	0.157
RRIRNRPPRLPRPRPRPMNTPRP	shrunken log2 fold change	-0.421
RRIRRRPPRLPRPRPRPMYDPRP	shrunken log2 fold change	-0.267
RRIRCRPPRLPRPRPRPGPVPRP	shrunken log2 fold change	0.239
RRIRIRPPRLPRPRPRPHYLPRP	shrunken log2 fold change	-0.0913
RRIRCRPPRLPRPRPRPQWTPRP	shrunken log2 fold change	-0.205
RRIRQRPPRLPRPRPRPRSKPRP	shrunken log2 fold change	0.185
RRIRPRPPRLPRPRPRPILQPRP	shrunken log2 fold change	-0.224
RRIRSRPPRLPRPRPRPIFRPRP	shrunken log2 fold change	0.0112
RRIRFRPPRLPRPRPRPKLMPRP	shrunken log2 fold change	0.195
RRIRLRPPRLPRPRPRPATDPRP	shrunken log2 fold change	0.142
RRIRSRPPRLPRPRPRPTLCPRP	shrunken log2 fold change	0.0788
RRIRERPPRLPRPRPRPRFVPRP	shrunken log2 fold change	-0.373

----------
System: Escherichia coli TOP10
assay.name: shrunken log2 fold change of peptide-encoding DNA abundance (4.5 h post-induction vs induction); higher = less antimicrobial activity (less host growth inhibition)
run.parameters: time post-induction: 4.5 h; library: site-saturation at positions 5, 18, 19, 20
Tick Fulfilled if shrunken log2 fold change is 0.006 or greater. Tick Not fulfilled if shrunken log2 fold change is less than 0.006.

macromolecule.sequence	label
RRIRHRPPRLPRPRPRPKSAPRP	Not fulfilled
RRIRARPPRLPRPRPRPKWIPRP	Fulfilled
RRIRWRPPRLPRPRPRPWMNPRP	Not fulfilled
RRIRKRPPRLPRPRPRPHTIPRP	Not fulfilled
RRIRHRPPRLPRPRPRPQIGPRP	Not fulfilled
RRIRCRPPRLPRPRPRPCETPRP	Fulfilled
RRIRRRPPRLPRPRPRPQWDPRP	Fulfilled
RRIRGRPPRLPRPRPRPPVLPRP	Fulfilled

----------
Test system: Escherichia coli TOP10
assay.name: shrunken log2 fold change of peptide-encoding DNA abundance (4.5 h post-induction vs induction); higher = less antimicrobial activity (less host growth inhibition)
run.parameters: time post-induction: 4.5 h; library: site-saturation at positions 5, 18, 19, 20
measured.property: shrunken log2 fold change

macromolecule.sequence	experimental.system	value.reported
RRIRYRPPRLPRPRPRPVMVPRP	Escherichia coli TOP10	-0.139
RRIRLRPPRLPRPRPRPFTTPRP	Escherichia coli TOP10	0.0966
RRIRERPPRLPRPRPRPDGEPRP	Escherichia coli TOP10	-0.115
RRIRCRPPRLPRPRPRPQNWPRP	Escherichia coli TOP10	-0.0693
RRIRKRPPRLPRPRPRPYYIPRP	Escherichia coli TOP10	-0.372
RRIRTRPPRLPRPRPRPQMQPRP	Escherichia coli TOP10	-0.0728
RRIRTRPPRLPRPRPRPMGMPRP	Escherichia coli TOP10	-0.12
RRIRWRPPRLPRPRPRPTLMPRP	Escherichia coli TOP10	0.479
RRIRRRPPRLPRPRPRPGKHPRP	Escherichia coli TOP10	-0.0322
RRIRSRPPRLPRPRPRPMMKPRP	Escherichia coli TOP10	1.75
RRIRCRPPRLPRPRPRPHQVPRP	Escherichia coli TOP10	-0.288
RRIRCRPPRLPRPRPRPPFFPRP	Escherichia coli TOP10	0.449
RRIRIRPPRLPRPRPRPGMLPRP	Escherichia coli TOP10	0.0213
RRIRDRPPRLPRPRPRPLLVPRP	Escherichia coli TOP10	0.134
RRIRARPPRLPRPRPRPDHNPRP	Escherichia coli TOP10	-0.154

----------
Test system: Escherichia coli TOP10
assay.name: shrunken log2 fold change of peptide-encoding DNA abundance (4.5 h post-induction vs induction); higher = less antimicrobial activity (less host growth inhibition)
run.parameters: time post-induction: 4.5 h; library: site-saturation at positions 5, 18, 19, 20
Tick Yes if shrunken log2 fold change is -0.01 or greater. Tick No if shrunken log2 fold change is less than -0.01.

macromolecule.sequence	label
RRIRERPPRLPRPRPRPWDMPRP	No
RRIRYRPPRLPRPRPRPNGFPRP	No
RRIRRRPPRLPRPRPRPQSWPRP	Yes
RRIRVRPPRLPRPRPRPTCDPRP	No
RRIRDRPPRLPRPRPRPNPVPRP	No
RRIRTRPPRLPRPRPRPDGSPRP	Yes
RRIRRRPPRLPRPRPRPQKVPRP	Yes
RRIRWRPPRLPRPRPRPWSDPRP	No
RRIRKRPPRLPRPRPRPDEVPRP	Yes
RRIRMRPPRLPRPRPRPTASPRP	Yes
RRIRWRPPRLPRPRPRPREGPRP	Yes
RRIRYRPPRLPRPRPRPRLRPRP	Yes
RRIRKRPPRLPRPRPRPKRSPRP	Yes
RRIRLRPPRLPRPRPRPLHNPRP	No
RRIRARPPRLPRPRPRPVWPPRP	Yes
RRIRGRPPRLPRPRPRPMHNPRP	Yes
RRIRIRPPRLPRPRPRPWHVPRP	No
RRIRKRPPRLPRPRPRPGHIPRP	No
RRIRDRPPRLPRPRPRPGFRPRP	Yes
RRIRIRPPRLPRPRPRPVLAPRP	No
RRIRLRPPRLPRPRPRPSWWPRP	Yes
RRIRGRPPRLPRPRPRPHLPPRP	Yes
RRIRKRPPRLPRPRPRPMHMPRP	No
RRIRIRPPRLPRPRPRPYMMPRP	No
RRIRPRPPRLPRPRPRPTKHPRP	No
RRIRGRPPRLPRPRPRPFFTPRP	Yes
RRIRPRPPRLPRPRPRPHMAPRP	No
RRIRPRPPRLPRPRPRPSNTPRP	No
RRIRPRPPRLPRPRPRPISKPRP	No
RRIRCRPPRLPRPRPRPCAVPRP	No

----------
Tested on: Escherichia coli TOP10;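 further: peptides expressed intracellularly from a pBAD plasmid library in pooled LB shake-flask culture, induced with 0.3% L-arabinose, DNA abundance read by NGS, three biological replicates, DESeq2 with apeglm shrinkage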
assay.name: shrunken log2 fold change of peptide-encoding DNA abundance (4.5 h post-induction vs induction); higher = less antimicrobial activity (less host growth inhibition)
run.parameters: time post-induction: 4.5 h; library: site-saturation at positions 5, 18, 19, 20
Reported values of shrunken log2 fold change for individual entries

macromolecule.sequence	experimental.system	shrunken log2 fold change
RRIRKRPPRLPRPRPRPIDKPRP	Escherichia coli TOP10	0.0797
RRIRRRPPRLPRPRPRPDEKPRP	Escherichia coli TOP10	0.135
RRIRTRPPRLPRPRPRPIGGPRP	Escherichia coli TOP10	-0.000462
RRIRLRPPRLPRPRPRPLAHPRP	Escherichia coli TOP10	-0.174
RRIRHRPPRLPRPRPRPEPEPRP	Escherichia coli TOP10	0.241
RRIRGRPPRLPRPRPRPYIAPRP	Escherichia coli TOP10	-0.391
RRIRKRPPRLPRPRPRPTVPPRP	Escherichia coli TOP10	0.283
RRIRNRPPRLPRPRPRPMAPPRP	Escherichia coli TOP10	-0.0631
RRIRSRPPRLPRPRPRPRKFPRP	Escherichia coli TOP10	0.015
RRIRPRPPRLPRPRPRPCIVPRP	Escherichia coli TOP10	-0.199
RRIRARPPRLPRPRPRPQHPPRP	Escherichia coli TOP10	0.29
RRIRGRPPRLPRPRPRPATNPRP	Escherichia coli TOP10	0.766
RRIRDRPPRLPRPRPRPGMAPRP	Escherichia coli TOP10	0.22
RRIRTRPPRLPRPRPRPGFCPRP	Escherichia coli TOP10	0.106
RRIRVRPPRLPRPRPRPWCNPRP	Escherichia coli TOP10	3.15
RRIRARPPRLPRPRPRPSYYPRP	Escherichia coli TOP10	-0.731
RRIRLRPPRLPRPRPRPEEFPRP	Escherichia coli TOP10	-0.0121
RRIRQRPPRLPRPRPRPKWMPRP	Escherichia coli TOP10	-0.131
RRIRARPPRLPRPRPRPNFVPRP	Escherichia coli TOP10	-0.122
RRIRKRPPRLPRPRPRPIFDPRP	Escherichia coli TOP10	0.205
RRIRVRPPRLPRPRPRPYRTPRP	Escherichia coli TOP10	-0.19
RRIRVRPPRLPRPRPRPDTPPRP	Escherichia coli TOP10	-0.0915
RRIRTRPPRLPRPRPRPRQAPRP	Escherichia coli TOP10	0.171
RRIRNRPPRLPRPRPRPEPNPRP	Escherichia coli TOP10	0.0829
RRIRNRPPRLPRPRPRPFKRPRP	Escherichia coli TOP10	0.09
RRIRIRPPRLPRPRPRPRMWPRP	Escherichia coli TOP10	-0.0292
RRIRVRPPRLPRPRPRPGGTPRP	Escherichia coli TOP10	0.0237
RRIRGRPPRLPRPRPRPPPEPRP	Escherichia coli TOP10	2.01
RRIRQRPPRLPRPRPRPVMPPRP	Escherichia coli TOP10	0.0623
RRIRLRPPRLPRPRPRPQFKPRP	Escherichia coli TOP10	-0.501
RRIRNRPPRLPRPRPRPEEIPRP	Escherichia coli TOP10	-0.000921
RRIRYRPPRLPRPRPRPVEAPRP	Escherichia coli TOP10	-0.35
